- procedure-details: chemical genetic growth profiling, strain panel (AID 1159580);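 further: tested at 20 µM; growth read once vehicle control cultures reached saturation at 30 °C; 1 = growth at the plate median or of vehicle wells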
- assay-context: S. cerevisiae deletion strains, growth OD, locus YHR087W, strain rtc3, stronger effect = lower value
The whole screen tested about 5,500 compounds, of which about 2,000 (36%) were called active. Inconclusive results (about 18%) are left out. The list shows a part of the results.
Please go through the items and note down their normalized growth.
Answers are plain numbers.

1) FC(F)(F)c1ccnc(-n2ccc(-c3cccs3)n2)n1; 1.01

Count: 6. Required value per item: normalized growth.
1. CCCCOc1cc(C(=O)O)ccc1OC
2. Cc1cc(C)c(NC(=S)NCCCN2CCOCC2)c(C)c1
3. CCCCOc1ccc(C(=O)CCC(=O)O)cc1
4. COc1ccccc1C1CCN(C(=O)c2ccc(F)cc2)CC1
5. COc1ccccc1C1CCN(Cc2ccc3ccccc3c2)CC1
6. O=C(O)CSCCOc1ccccc1

1. 0.977
2. 1.01
3. 0.982
4. 1.01
5. 0.987
6. 0.998

###

- procedure-details: chemical genetic growth profiling, strain panel (AID 1159580)
- assay-context: S. cerevisiae deletion strains, growth OD, locus YJL187C, strain SWE1 (second series), stronger effect = lower value
Hit rate of the full screen: of about 5,500 compounds, about 2,000 (36%) were called active. Roughly 18% stayed inconclusive and do not appear here. The list shows a part of the results.
Please go through the items and note down their normalized growth.
Answers are plain numbers.

1) CC(C)=CCc1c(O)cc2oc(C)cc(=O)c2c1O; 0.966
2) N=c1nc(N2CCCCC2)cc(N)n1O; 0.983
3) C/C=C(/C(=C/C)c1ccc(O)cc1)c1ccc(O)cc1; 0.814

Count: 5. Required value per item: normalized growth.
1. COc1cc(OC)c2c(c1)OC(c1ccccc1)CC2=O (stereo not drawn)
2. CN1CCc2cc3c(cc2C1O)OCO3 (stereo not drawn)
3. COc1ccc([C@@H]2CC(=O)c3c(O)cc(O)cc3O2)cc1O
4. COc1cc2c(cc1OC)C(=O)C(CC1CCN(Cc3ccccc3)CC1)C2 (stereo not drawn)
5. O=C1C[C@@H](c2ccccc2)Oc2cc(O)cc(O)c21

[0.994, 0.974, 1.02, 0.849, 0.893]

###

- procedure-details: chemical genetic growth profiling, strain panel (AID 1159580)
- assay-context: S. cerevisiae deletion strains, growth OD, locus YNL298W, strain CLA4 (second series), stronger effect = lower value
Hit rate of the full screen: of about 5,500 compounds, about 2,000 (36%) were called active. About 18% were inconclusive and are not listed. Some of the results follow.
recorded-metric: normalized growth
Give bare numbers.

1. Cc1ccc2cc(C)c(C)cc2c1; 0.957
2. Cc1cc(C)c(NC(=S)NCCCN2CCOCC2)c(C)c1; 1.04
3. CCCC(C)(SCC(=O)O)SCC(=O)O; 1.02
4. COC(=O)c1cc(OC)c(OC)c(OC)c1NS(=O)(=O)c1cc(OC)ccc1OC; 0.987
5. CC1(C)/C(=N/OC(=O)c2cccc(C(F)(F)F)c2)[C@]2(C)CCC1C2; 0.987

Count: 5. Required value per item: normalized growth.
1. O=C(CSc1ccc(C(F)(F)F)cn1)N1CCc2c([nH]c3ccccc23)C1C(F)(F)F (stereo unspecified)
2. O=C(O)COCC(=O)N1CCc2c([nH]c3ccccc23)C1C(F)(F)F (stereo unspecified)
3. O=c1[nH]c2cccnc2[nH]c1=O
4. O=C(O)CSCC(=O)N1CCc2c([nH]c3ccccc23)C1C(F)(F)F (stereo unspecified)
5. CCOC(=O)COc1ccc2c(c1)OC(C)(C)CC2=O

1. 1.01
2. 1.05
3. 1.04
4. 1.05
5. 1.01

Recorded normalized growth (compound O=C(Nc1ccccc1C(=O)Nc1ccc(Br)cc1)c1ccccc1 ): 1.06

###

- procedure-details: chemical genetic growth profiling, strain panel (AID 1159580)
- assay-context: S. cerevisiae deletion strains, growth OD, locus YBR231C, strain swc5
The campaign covered roughly 5,500 compounds. About 2,000 (36%) were called active. About 18% were inconclusive and are not listed. Cut-off read from the data, not from the text of the source: active = normalized growth mostly below about 0.91 (no sharp cut-off); inconclusive = no clear call, values can overlap the other calls; inactive = mostly above about 0.92. The list shows a part of the results.
Respond only with the outcome that fits, drawn from label 1 (active), label 0 (inactive)

1) CC(=O)OC1CC23CC24CCC(OC2OCC(O)C(O)C2O)C(C)(C)C4CCC3C2(C)CC3OC4(CC(C)C3C12C)OC(O)C1(C)OC41 (configuration not stated); label 0
2) NC[C@@H]1O[C@H](O[C@@H]2[C@@H](CO)OC(O[C@@H]3[C@@H](O)[C@H](N)C[C@H](N)[C@H]3OC3O[C@H](CN)[C@@H](O)[C@H](O)[C@H]3N)[C@@H]2O)[C@H](N)[C@@H](O)[C@@H]1O (some centres not stated); label 0
3) CC(=O)O[C@]1(C(C)=O)CCC2C3C=C(C)C4=CC(=O)CCC4(C)C3CCC21C (some centres not stated); label 0
4) COc1ccc2c(c1)C1(C)CCC(=O)CC1CC2 (configuration not stated); label 0
5) NC/C=C/C(=O)O; label 0

Field: outcome | Entry: Cc1cc(=O)c2c(O)c(C)c(O)cc2o1
label 0

Field: outcome | Entry: COc1cc(O)c(C(=O)c2ccccc2)cc1O
label 0

###

- procedure-details: chemical genetic growth profiling, strain panel (AID 1159580)
- assay-context: S. cerevisiae deletion strains, growth OD, locus YNL271C, strain bni1, stronger effect = lower value
Hit rate of the full screen: of about 5,500 compounds, about 2,000 (36%) were called active. Not shown: some 18% with an inconclusive outcome. The list shows a part of the results.
recorded-metric: normalized growth

Use the examples below as a reference point.
1) CNc1ccccc1C(=O)N1CCc2c([nH]c3ccccc23)C1=O; 0.989 (inactive)
2) CNC1(C)C2CCC(C2)C1(C)C (centres undefined); 0.996 (inactive)
3) O=[N+]([O-])O[C@H]1CO[C@H]2[C@@H]1OC[C@H]2O[N+](=O)[O-]; 1.01 (inactive)
4) CC(=O)O[C@H]1C(=O)[C@@]2(C)C([C@H](OC(=O)c3ccccc3)[C@]3(O)C[C@H](OC(=O)[C@H](O)[C@@H](NC(=O)c4ccccc4)c4ccccc4)C(C)=C1C3(C)C)[C@]1(OC(C)=O)CO[C@@H]1C[C@@H]2O (some centres undefined); 1 (inactive)
5) O[C@H]1C=C2CCN3Cc4cc5c(cc4C(C23)[C@@H]1O)OCO5 (some centres undefined); 0.908 (active)

Count: 4. Required value per item: normalized growth.
1. O=C(/C=C/C=C/c1ccc2c(c1)OCO2)N1CCCCC1
2. COC(=O)[C@H]1[C@H]2C[C@H]3c4[nH]c5ccccc5c4CCN3C[C@H]2CC[C@@H]1O
3. COC(=O)C1[C@H]2C[C@H]3c4[nH]c5ccccc5c4CCN3C[C@@H]2CC[C@@H]1O (some centres undefined)
4. CCOC(=O)/C=C(\C)OP(=O)(OC)OC

1. 0.933 (inactive)
2. 1.01 (inactive)
3. 1.02 (inactive)
4. 1 (inactive)

###

- procedure-details: chemical genetic growth profiling, strain panel (AID 1159580);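 further: tested at 20 µM; growth read once vehicle control cultures reached saturation at 30 °C; 1 = growth at the plate median or of vehicle wells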
- assay-context: S. cerevisiae deletion strains, growth OD, locus YJL166W, strain qcr8, stronger effect = lower value
Screen size: about 5,500 compounds; about 2,000 (36%) were called active. About 18% were inconclusive and are not listed. The list shows a part of the results.
recorded-metric: normalized growth
Answers are plain numbers.

1. CC(C)CC1C(=O)N2CCC[C@H]2C2(O)O[C@](NC(=O)C3C=C4c5cccc6[nH]c(Br)c(c56)C[C@H]4N(C)C3)(C(C)C)C(=O)N12 (stereo not given in full); 0.996

Count: 2. Required value per item: normalized growth.
1. NC/C=C/C(=O)O
2. COc1cc2c(cc1OC)C(=O)C(CC1CCN(Cc3ccccc3)CC1)C2 (stereo not given)

1.02
0.931

###

- procedure-details: chemical genetic growth profiling, strain panel (AID 1159580);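 further: tested at 20 µM; growth read once vehicle control cultures reached saturation at 30 °C; 1 = growth at the plate median or of vehicle wells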
- assay-context: S. cerevisiae deletion strains, growth OD, locus YDR137W, strain rgp1
Screen size: about 5,500 compounds; about 2,000 (36%) were called active. Roughly 18% stayed inconclusive and do not appear here. No stated cut-off is given here; in the data, active means normalized growth mostly below about 0.91 (no sharp cut-off); inconclusive means no clear call, values can overlap the other calls; inactive means mostly above about 0.92. Some of the results follow.
Respond only with the outcome that fits, drawn from active, inactive

1) CC(=O)O[C@]1(C(C)=O)CCC2C3C=C(Cl)C4=CC(=O)CC[C@]4(C)C3CC[C@@]21C (stereo not given in full); inactive
2) CCCCOc1ccc(C(=O)CCN2CCCCC2)cc1; active
3) CCCCOc1ccc(OCCCN2CCOCC2)cc1; inactive
4) CC(=O)O[C@]1(C(C)=O)CCC2C3C=C(C)C4=CC(=O)CCC4(C)C3CCC21C (stereo not given in full); active

# evaluate next
Field: outcome | Entry: CC(=O)[C@H]1CCC2C3C[C@H](C)C4=CC(=O)CC[C@]4(C)C3[C@@H](O)C[C@@]21C (stereo not given in full)
inactive

###

- procedure-details: chemical genetic growth profiling, strain panel (AID 1159580);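 further: tested at 20 µM; growth read once vehicle control cultures reached saturation at 30 °C; 1 = growth at the plate median or of vehicle wells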
- assay-context: S. cerevisiae deletion strains, growth OD, locus YPR135W, strain CTF4
Hit rate of the full screen: of about 5,500 compounds, about 2,000 (36%) were called active. Another 18% or so got no clear call; they are omitted. Cut-off read from the data, not from the text of the source: active = normalized growth mostly below about 0.91 (no sharp cut-off); inconclusive = no clear call, values can overlap the other calls; inactive = mostly above about 0.92. Some of the results follow.
Respond only with the outcome that fits, drawn from active, inactive

Worked set:
1) CC(=O)OCc1ccc(/C=C(\C#N)S(=O)(=O)c2ccc(Cl)cc2)o1; inactive
2) Cc1cc(C)c(NC(=S)NCCCN2CCOCC2)c(C)c1; inactive
3) CN(C)C=Nc1nc2c(s1)CCc1ccccc1-2; active
4) Cc1cc(NC(=O)C(Cl)(Cl)Cl)n(-c2ccccc2)n1; inactive
5) O=C(O)CSCC(=O)N1CCc2c([nH]c3ccccc23)C1C(F)(F)F (stereo not given); inactive
6) COC(=O)c1c(C)[nH]c(C)c1C(C)=O; active

Field: outcome | Entry: Cc1ccc(Oc2ccc(C)cc2)cc1
inactive

Field: outcome | Entry: O=C(O)CSCCOc1ccccc1
inactive

Field: outcome | Entry: FC(F)(F)Oc1ccc(-c2noc(CSc3ccc(Br)cc3)n2)cc1
inactive

Field: outcome | Entry: COc1ccc(S(=O)(=O)Nc2cc(C)c(C)cc2[N+](=O)[O-])c(OC)c1
inactive

Field: outcome | Entry: COc1ccc(OC)c(C(=O)c2cc(OC)c(OC)c(OC)c2)c1
inactive

Field: outcome | Entry: CC(C)(C)OC(=O)N1CCC(C(N)=O)CC1
inactive

Field: outcome | Entry: Cc1ccc2cc(C)c(C)cc2c1
inactive

Field: outcome | Entry: CC(C)(C)NC(=O)N1CCN(c2nc3ccc(Cl)cc3s2)CC1
inactive

Field: outcome | Entry: COC(=O)c1cc(OC)c(OC)c(OC)c1NS(=O)(=O)c1cc(OC)ccc1OC
inactive

Field: outcome | Entry: Cc1cc(=O)n2c(-c3ccc(Cl)cc3)csc2n1
inactive

Field: outcome | Entry: COc1ccccc1C1CCN(Cc2ccc3ccccc3c2)CC1
inactive

Field: outcome | Entry: CN1C(=O)CN=C(c2ccccc2)c2ccccc21
inactive

Field: outcome | Entry: CCCCCCCc1c(O)c2ccccc2[nH]c1=O
inactive

Field: outcome | Entry: O=[N+]([O-])c1cc(C(F)(F)F)ccc1N1CCN(CCO)CC1
inactive
